# Tested on: MALME-3M melanoma
# protocolDetails: NCI tumour cell line growth inhibition, 48 h
Catalogue of TGI values

{"compound": "COC(=O)c1c(-c2ccccc2)cc2c3cc(-c4ccccc4)c(C(=O)OC)n3c3ccccc3n12", "TGI": "> 100 µM"}
{"compound": "O=c1cc(-c2ccccc2)[nH]c2cccc(S)c12", "TGI": "> 100 µM"}
{"compound": "O=C(NCCNCCO)N/N=C/c1ccc(Cl)cc1", "TGI": "> 100 µM"}

Inquiry: What does the data say about its TGI? Entry: CCOC(=O)C1=C(C)NC(=S)NC1c1cccc(O)c1 (stereo not drawn)
Reply text: > 100 µM

---

# System: IGROV1 ovarian
# protocolDetails: NCI tumour cell line growth inhibition, 48 h
Catalogue of GI50 values

{"querySmiles": "COc1cc([C@H](C)c2ccc3ccccc3c2)cc(OC)c1OC", "valueReported": "0.804 µM"}
{"querySmiles": "Cc1ccc(C(=O)c2oc3ccc4c(C)cc(=O)oc4c3c2C)cc1", "valueReported": "13.8 µM"}

Inquiry: What does the data say about its GI50? Entry: `COc1cc(/C=C/c2cc(C(F)(F)F)[nH]c(=O)n2)ccc1OCc1ccccc1F`
Reply text: 12.4 µM

Inquiry: What does the data say about its GI50? Entry: `O=C(Oc1ccc(O)c2c(=O)n3c(cc12)[nH]c1ccccc13)c1ccccc1`
Reply text: 10.6 µM

Inquiry: What does the data say about its GI50? Entry: `CN(C)CCNc1nc2ccccc2c2c1c1c(n2Cc2ccccc2)-c2ccccc2C1=O`
Reply text: 12.1 µM

Inquiry: What does the data say about its GI50? Entry: `O=C(Nc1ccc(Cl)cc1)Nc1ccc(Cl)c(Cl)c1`
Reply text: 4.78 µM

Inquiry: What does the data say about its GI50? Entry: `Oc1ccc(Br)cc1Sc1cc(Br)ccc1O`
Reply text: 15.7 µM

Inquiry: What does the data say about its GI50? Entry: `CN1CCN(Cc2ccc(NC(=O)c3cncc(C#Cc4cnc(N)c5ccc(F)cc45)c3)cc2C(F)(F)F)CC1`
Reply text: 0.677 µM

Inquiry: What does the data say about its GI50? Entry: `COc1cc(-c2cnn(C)c2)ccc1Nc1ncc2ccnc(N[C@@H](C)C(C)(C)C)c2n1`
Reply text: > 100 µM

Inquiry: What does the data say about its GI50? Entry: `COc1cc2c(cc1C)NC(=O)/C2=C\c1cc(OC)c(OC)c(OC)c1`
Reply text: 72.1 µM

---

# Tested on: SK-MEL-28 melanoma
# protocolDetails: NCI tumour cell line growth inhibition, 48 h
parameter: GI50

Study these solved cases before continuing.
{"molecule": "CC[N+](CCCCCCCCCC[N+](CC)(c1ccccn1)c1ccccn1)(c1ccccn1)c1ccccn1", "testedTarget": "SK-MEL-28 melanoma", "GI50": "2.48 µM"}
{"molecule": "COc1cccc(-c2nc3sccn3c2-c2ccnc(NCCNC(=O)Nc3cccc(C(F)(F)F)c3)n2)c1", "testedTarget": "SK-MEL-28 melanoma", "GI50": "5.36 µM"}
{"molecule": "CCOc1ccc(/C=C/C(=O)c2ccccc2)cc1", "testedTarget": "SK-MEL-28 melanoma", "GI50": "19.8 µM"}
{"molecule": "COc1cc(-c2nc3ccc(C)cc3[nH]2)ccc1OCC(=O)N=Nc1c(O)[nH]c2ccccc12", "testedTarget": "SK-MEL-28 melanoma", "GI50": "1.77 µM"}
{"molecule": "O=[N+]([O-])c1ccc2[nH]cc(-c3c4ccsc4cc4[nH]c5ccc([N+](=O)[O-])cc5c34)c2c1", "testedTarget": "SK-MEL-28 melanoma", "GI50": "1.38 µM"}

Inquiry: What does the data say about its GI50? Entry: `CC1=CC[C@@H]2CC[C@]3(C)[C@H](CC[C@@H]4[C@@]5(C)CCCNC(C)(C)[C@@H]5CC[C@]43C)[C@H]2[C@@H]1C`
Reply text: 1.81 µM

Inquiry: What does the data say about its GI50? Entry: `O=C(Nc1ccc(Cl)cc1)Nc1ccc(Cl)c(Cl)c1`
Reply text: 6.07 µM

Inquiry: What does the data say about its GI50? Entry: `CN1CCN(Cc2ccc(NC(=O)c3cncc(C#Cc4cnc(N)c5ccc(F)cc45)c3)cc2C(F)(F)F)CC1`
Reply text: 2.52 µM

---

# System: ACHN renal
# protocolDetails: NCI tumour cell line growth inhibition, 48 h
Returns one of 1 or 0; 1 when TGI is >= 20 µM.

Inquiry: Is it the case that `CSC(=NC1=NC(C(F)(F)F)(C(F)(F)F)N=C(c2ccccc2)O1)SC` has TGI reaching or exceeding 20 µM?
Reply text: 0

Inquiry: Is it the case that CCCC(=O)c1c(NOC2OC(COC(C)=O)C(OC(C)=O)C(OC(C)=O)C2OC(C)=O)nc(OC)n(C)c1=O (centres undefined) has TGI reaching or exceeding 20 µM?
Reply text: 1

Inquiry: Is it the case that CC1CC(c2ccccc2)=Nc2ccccc2S1(=O)=O (centres undefined) has TGI reaching or exceeding 20 µM?
Reply text: 1

Inquiry: Is it the case that `COc1cc2nc(-c3ccc(C(F)(F)F)cc3)cc(OCCCN3CCOCC3)c2cc1OC` has TGI reaching or exceeding 20 µM?
Reply text: 0

---

# System: SF-295 CNS
# protocolDetails: NCI tumour cell line growth inhibition, 48 h; in the data active = GI50 below about 0.43 µM; inactive = the rest
Could you please pick one outcome from this set? yes (active), no (inactive)

{"compound": "COc1cc2c(cc1C)NC(=O)/C2=C\\c1cc(OC)c(OC)c(OC)c1", "classification": "no"}

Inquiry: For this compound, state the assay outcome: `CC(=O)Oc1cc(C)ccc1[C@]1(C)CC[C@H](C)/C1=C\Br`
Reply text: no

Inquiry: For this compound, state the assay outcome: `O=C(Nc1ccccc1C(F)(F)F)c1cccc(NC2=C(Cl)C(=O)N(Cc3ccccc3)C2=O)c1`
Reply text: no

Inquiry: For this compound, state the assay outcome: `CCCCNc1nc(NC(C)(C)C)nc(NC(C)(C)C)n1`
Reply text: no

---

Catalogue of TGI values
# System: K-562 leukemia
# protocolDetails: NCI tumour cell line growth inhibition, 48 h

{"compound": "Cc1ccc(S(=O)(=O)N2CCN(CCN(C)CCN3CCN(S(=O)(=O)c4ccc(C)cc4)CC3)CC2)cc1", "TGI": "35.2 µM"}

Inquiry: What does the data say about its TGI? Entry: CC1(C)[C@@H]2C[C@H]1c1cnc(-c3ccccn3)cc1C2[C@@H]1c2cc(-c3ccccn3)ncc2[C@@H]2C[C@H]1C2(C)C (stereo not given in full)
Reply text: > 100 µM

Inquiry: What does the data say about its TGI? Entry: `O=C(c1ccco1)N(C(=S)OCc1ccccn1)c1ccccc1`
Reply text: > 100 µM

Inquiry: What does the data say about its TGI? Entry: `CC(C)n1c(=O)n(-c2ccccc2)n(C(C)(C)C)c1=O`
Reply text: > 100 µM

Inquiry: What does the data say about its TGI? Entry: CCN(CC)CCCCC1CCN(CC(=O)N2CC(C)C(=O)Nc3ccccc32)CC1 (stereo not given)
Reply text: > 100 µM

Inquiry: What does the data say about its TGI? Entry: `CCOC(=O)[C@@H](C)C[C@H](Cc1ccccc1)NC(=O)c1csc([C@@H](C[C@H](C(C)C)N(C)C(=O)[C@@H](NC(=O)[C@H]2C[C@H](O[Si](C)(C)C(C)(C)C)CCN2C)C(C)C)OC(C)=O)n1`
Reply text: > 5.06 µM

---

# Tested on: SR leukemia
# protocolDetails: NCI tumour cell line growth inhibition, 48 h
Catalogue of TGI values

Study these solved cases before continuing.
{"compound": "CCN(CC)CCn1c2c3ccccc3ccc2c2oc(=O)c3ccccc3c21", "testedTarget": "SR leukemia", "TGI": "> 100 µM"}
{"compound": "NC(=O)COc1ccccc1", "testedTarget": "SR leukemia", "TGI": "> 100 µM"}
{"compound": "CCCCCCCCCCCCCCCCNc1nc(=O)n(C2CC(O)C(CO)O2)cc1F (stereo unspecified)", "testedTarget": "SR leukemia", "TGI": "26.3 µM"}

Inquiry: What does the data say about its TGI? Entry: `COc1cc2c(cc1OCc1ccccc1)N=C[C@@H]1C/C(=C/C(=O)NCCCN3C(=O)c4cccc5cccc(c45)C3=O)CN1C2=O`
Reply text: > 100 µM

Inquiry: What does the data say about its TGI? Entry: NC(=O)CC(Nc1ncc2c(n1)-c1ccccc1OC2)C(=O)O (stereo unspecified)
Reply text: > 100 µM

Inquiry: What does the data say about its TGI? Entry: `O=C(N=Nc1ccccc1Br)NNc1ccccc1Br`
Reply text: > 100 µM

---

Catalogue of TGI values
# System: RPMI-8226 leukemia
# protocolDetails: NCI tumour cell line growth inhibition, 48 h

Study these solved cases before continuing.
{"molecule": "CC(=O)N/C(=C\\c1ccc(/C=C(\\NC(C)=O)c2nc3ccc(Cl)cc3[nH]2)cc1)c1nc2ccccc2[nH]1", "valueReported": "> 100 µM"}
{"molecule": "COC(OC)C(O)C1OC=CC1n1cnc2c(N)ncnc21 (centres undefined)", "valueReported": "> 100 µM"}
{"molecule": "COC(=O)C1(C(=O)OC)N=C(C)OC1C(C)C (centres undefined)", "valueReported": "> 100 µM"}

Now, please, on to the next molecule.
Inquiry: Short answer please: TGI, RPMI-8226 leukemia, entry CC1=CSC2=NC(c3ccc(Cl)c(Cl)c3)=CC(c3ccc(Cl)cc3)N12 (centres undefined)
Reply text: > 100 µM
